Here the recorded T/C is given for each entry.
# System: L1210 leukemia ip in BDF1 mice, survival T/C
# methodSummary: NCI In Vivo Anticancer Drug Screen. Data for tumor model L1210 Leukemia (intraperitoneal) in B6D2F1 (BDF1) mice
# statedConditions: endpoint: mean survival time; dose: 50.0 mg/kg/injection; schedule: Q01DX001 (ip); vehicle: Klucel (hydroxypropylcellulose) (HPC); higher = longer survival
Toxic doses and inconclusive results are not listed.
measuredQuantity: T/C

O=C(O)CC(c1ccccc1)n1ccc(=O)[nH]c1=O (stereo not drawn); 106 % of control
Nc1cccc[n+]1CC1(c2ccccc2)OCCO1; 110 % of control
CN1CCN(C(=S)Nc2ccccc2)CC1; 106 % of control
CCCCCn1cnc2c(=O)[nH]c(N)nc21; 105 % of control
COC1OC2COC(c3ccccc3)OC2C2C1N2C#N (stereo not drawn); 93 % of control
COC(=S)SCN(CSC(=S)OC)c1ccccc1Cl; 111 % of control
O=C1OC(=O)c2cccc3cccc1c23; 98 % of control
CC(C)(C)c1cc(C(C)(C)[N+](C)(C)C)cc(C(C)(C)C)n1; 102 % of control

###

# System: L1210 leukemia ip in BDF1 mice, survival T/C
# methodSummary: NCI In Vivo Anticancer Drug Screen. Data for tumor model L1210 Leukemia (intraperitoneal) in B6D2F1 (BDF1) mice
# statedConditions: endpoint: mean survival time; dose: 400.0 mg/kg/injection; schedule: Q01DX001 (ip); vehicle: Klucel (hydroxypropylcellulose) (HPC); higher = longer survival
Toxic doses and inconclusive results are not listed.
measuredQuantity: T/C

O=C(NC(=O)C(Cl)Cl)Nc1cccc2c1-c1ccccc1C2; 92 % of control
Cc1cnc2c(N)nc(-c3ccccc3)nc2n1; 100 % of control
CCOC(=O)CSC(=S)N1CCOCC1; 102 % of control
CCN(C(=S)c1ccccc1)c1ccc(C(=O)OC)cc1; 100 % of control
CCOC(=O)c1cc2nc(C(C)C)n(Cc3ccccc3)c2cc(C(=O)OCC)c1=O; 100 % of control
O=C1c2ccccc2-c2c(O)cccc21; 96 % of control
COc1c(Cl)c(C)c(Cl)c(C)c1C#CC(=O)O; 101 % of control
O=C(c1ccc(Cl)cc1)C(C(c1ccc([N+](=O)[O-])cc1)N1CCCCC1)N1CCCCC1 (centres undefined); 92 % of control
CC(C)CCCC(C)C1CCC2C3CCC4(C)CCCCC4(C)C3CCC12C (centres undefined); 109 % of control
COC(=O)c1c(C(=O)O)coc1C(=O)N1CCCC1; 105 % of control
O=C(COc1ccc(Cl)cc1C(=O)O)Nc1cccc(NC(=O)Nc2cc(S(=O)(=O)F)ccc2Cl)c1; 91 % of control
Nc1cccc(/C=C/c2ccc([N+](=O)[O-])cc2)c1; 94 % of control
NC(Cc1ccccc1)c1ccc2oc3ccccc3c2c1 (centres undefined); 103 % of control
O=c1[nH]c(=O)n(CCCOc2ccccc2)cc1CCc1ccccc1; 87 % of control
CSc1cc(N)nc(N)c1[N+](=O)[O-]; 94 % of control
O=C(O)CNCc1ccc2c(c1)OCCO2; 95 % of control
NC(=O)Cc1ccccc1N; 98 % of control
Oc1ccc(-c2nc3ccccc3s2)cc1; 111 % of control
Cc1cccc(OC(=O)Nc2cccc(Cl)c2)c1C; 92 % of control

###

# Test system: L1210 leukemia ip in BDF1 mice, survival T/C
# methodSummary: NCI In Vivo Anticancer Drug Screen. Data for tumor model L1210 Leukemia (intraperitoneal) in B6D2F1 (BDF1) mice
# statedConditions: endpoint: mean survival time; dose: 15.0 mg/kg/injection; schedule: Q01DX Z (ip); vehicle: saline; higher = longer survival
Inconclusive results and toxic doses are left out.
measuredQuantity: T/C

NC(N)=N/N=C/c1cccc(Cl)c1; 94 % of control
C[n+]1ccccc1NC(=O)c1ccc(C(=O)Nc2cccc[n+]2C)cc1; 100 % of control
NC(N)=N/N=C/c1ccc([N+](=O)[O-])cc1; 95 % of control
CN(C)[C@@H]1C(=O)C(C(=O)NCNC(CO)(CO)CO)=C(O)[C@@]2(O)C(=O)C3=C(O)c4c(O)cccc4[C@@](C)(O)[C@H]3C[C@@H]12; 102 % of control

###

# Test system: L1210 leukemia ip in BDF1 mice, survival T/C
# methodSummary: NCI In Vivo Anticancer Drug Screen. Data for tumor model L1210 Leukemia (intraperitoneal) in B6D2F1 (BDF1) mice
# statedConditions: endpoint: mean survival time; dose: 300.0 mg/kg/injection; schedule: Q04DX003 (ip); vehicle: saline; higher = longer survival
Inconclusive results and toxic doses are left out.
measuredQuantity: T/C

CC(C)(C)OC(=O)CC#N; 100 % of control
COc1ccc(C(=O)/C=C/c2ccccc2O)cc1; 96 % of control
NCCCNC/C=C/CNCCCN; 104 % of control
ClCC/C=C\C=C\CCCl; 107 % of control

###

# Test system: L1210 leukemia ip in BDF1 mice, survival T/C
# methodSummary: NCI In Vivo Anticancer Drug Screen. Data for tumor model L1210 Leukemia (intraperitoneal) in B6D2F1 (BDF1) mice
# statedConditions: endpoint: mean survival time; dose: 100.0 mg/kg/injection; schedule: Q04DX003 (ip); vehicle: saline with Tween-80; higher = longer survival
Inconclusive results and toxic doses are left out.
Here the recorded T/C is given for each entry.
measuredQuantity: T/C

CC1(C)N=C(N)N=C(N)N1c1ccc(OCCNS(=O)(=O)c2ccc(S(=O)(=O)F)cc2)c(Cl)c1; 105 % of control
Cc1ccc(C(=O)N(N)C2CCCCC2)cc1; 95 % of control
COc1ccc(C(C(C(C)=O)C(C)=O)C(C(C)=O)C(C)=O)cc1; 100 % of control
COC(OC)c1nc(SC)[nH]c(=O)c1C; 105 % of control
N#CC(Oc1ccccc1)c1ccccc1 (stereo unspecified); 98 % of control
CC(=O)Nc1ccn(CC(=O)c2ccco2)c(=O)n1; 98 % of control
C=C(C(N)=O)c1cc(Cl)ccc1Cl; 103 % of control
NC(=O)N/N=C/C(c1ccccc1)c1ccccc1; 96 % of control
O=C(Cc1ccc(F)cc1)c1ccccc1; 98 % of control
Cn1c(CO)cc2ccccc21; 96 % of control
CC(C(N)=O)N1C(=O)C2C3C=CC(C3)C2C1=O (stereo unspecified); 109 % of control
CC(O)CNC(=O)C(C)O (stereo unspecified); 98 % of control
CC(=O)OCC(CCn1ccc(=O)[nH]c1=O)COC(C)=O; 100 % of control
Clc1ccc2nc(CBr)cnc2c1; 90 % of control
S=P(c1cccs1)(c1cccs1)c1cccs1; 93 % of control
CCCCCCCCCCCCCCCCCC[Se]CCCCCCCCCCCCCCCCCC; 88 % of control

###

Here the recorded T/C is given for each entry.
# System: L1210 leukemia ip in BDF1 mice, survival T/C
# methodSummary: NCI In Vivo Anticancer Drug Screen. Data for tumor model L1210 Leukemia (intraperitoneal) in B6D2F1 (BDF1) mice
# statedConditions: endpoint: mean survival time; dose: 100.0 mg/kg/injection; schedule: Q04DX003 (ip); vehicle: Klucel (hydroxypropylcellulose) (HPC); higher = longer survival
# Method: The antitumor activity of compounds was measured in mice bearing transplantable tumors. Survival or tumor size were measured and the results are expressed as the measurement made in the treated group (T) divided by the measurement made in the vehicle treated control group (C). The tumor model used in this assay is L1210 Leukemia (intraperitoneal) in B6D2F1 (BDF1) mice
Toxic doses and inconclusive results are not listed.
measuredQuantity: T/C

Cc1nc(C(N)=O)c(=O)[nH]c1C; 102 % of control
O=C(Oc1ccc(Cl)cc1Cl)Oc1ccc(Cl)cc1Cl; 95 % of control
Cc1ccc(C(C)C)cc1NC(=O)NCCCl; 112 % of control
CCCCCCCc1ccc2cccc3c2c1C(=O)c1ccccc1-3; 92 % of control
COC1(OC)C2(Cl)C(Cl)=C(Cl)C1(Cl)C1C(=O)C=CC(=O)C12 (configuration not stated); 100 % of control
O=c1[nH]c(-c2ccc(O)cc2)nc2[nH]ncc12; 88 % of control
O=C(OCC1CCCO1)c1ccccc1O (configuration not stated); 100 % of control
OCCN=C1c2cc(Cl)ccc2-c2c(Cl)cc(Cl)cc21; 103 % of control
Cc1cccc(OC(=O)Nc2cccc(Cl)c2)c1C; 101 % of control
CC(=O)OC1CC(OC2C(O)CC(OC3C(O)CC(OC4CCC5(C)C(CCC6C5CCC5(C)C(C7=CC(=O)OC7)C(O)CC65O)C4)OC3C)OC2C)OC(C)C1OC1OC(CO)C(O)C(O)C1O (configuration not stated); 97 % of control
O=C(O)c1cc(N=Nc2ccccc2C(=O)O)ccc1O; 92 % of control
O=C(Nc1ccc(Cl)cc1)C(Cl)Cl; 100 % of control
